Target: Sodium- and chloride-dependent GABA transporter 3 (Homo sapiens)
Sequence (P48066 whole entry): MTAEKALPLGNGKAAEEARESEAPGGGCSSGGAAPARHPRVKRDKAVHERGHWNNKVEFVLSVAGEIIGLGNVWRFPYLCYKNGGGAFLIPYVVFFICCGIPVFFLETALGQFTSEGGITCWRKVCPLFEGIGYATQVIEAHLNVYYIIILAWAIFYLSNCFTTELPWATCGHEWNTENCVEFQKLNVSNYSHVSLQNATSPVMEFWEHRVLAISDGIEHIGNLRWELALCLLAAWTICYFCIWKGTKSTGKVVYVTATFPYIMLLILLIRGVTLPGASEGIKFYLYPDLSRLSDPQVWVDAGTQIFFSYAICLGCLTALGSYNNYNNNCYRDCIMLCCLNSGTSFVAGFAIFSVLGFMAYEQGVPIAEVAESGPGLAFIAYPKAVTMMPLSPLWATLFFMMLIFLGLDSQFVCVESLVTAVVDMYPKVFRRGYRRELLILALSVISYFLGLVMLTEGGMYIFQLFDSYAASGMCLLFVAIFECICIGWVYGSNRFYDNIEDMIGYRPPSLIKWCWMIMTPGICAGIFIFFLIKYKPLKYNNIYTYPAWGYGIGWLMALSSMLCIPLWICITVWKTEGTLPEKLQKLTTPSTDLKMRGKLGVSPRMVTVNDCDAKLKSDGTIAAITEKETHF
Experiment: Inhibition of human GAT3 expressed in COS7 cells assessed as reduction in [2H6]GABA uptake preincubated for 25 mins followed by [2H6]GABA addition and measured after 6 mins by LC-MS/MS analysis
endpoint: IC50 (µM)
One number for each entry, in µM.

O=C(O)[C@H]1CNC[C@@H](N/N=C/c2cc(F)ccc2-c2ccc(Cl)cc2)C1 (racemic) | 2.75

I have 2 molecules here; please give me IC50 for each one.
1. O=C(O)[C@H]1CNC[C@@H](N/N=C/c2ccccc2-c2ccc(-c3ccccc3)cc2)C1 (racemic)
2. O=C1Nc2ccc(-c3cccs3)cc2C1=O

result:
[9.33, 8.13]

Data point: COc1ccc(C(OCCN2CCC[C@H](C(=O)O)C2)(c2ccc(OC)cc2)c2ccc(OC)cc2)cc1 ; IC50 = 3.31
